system: mouse p16Ink4a+/- lung fibroblasts (INKBRITE, bleomycin-injured); assay: GFP- (p16Ink4a-) cell count relative to negative-control wells (fold of vehicle); higher = more p16Ink4a- cells surviving; conditions: 1 µM; 3 days
Structures can show the parent of a compound that is named as a salt. Whole data set: some 1,800 compounds, median “GFP- (p16Ink4a-) cell count relative to negative-control wells” near 0.99, cut for the lowest 2% near 0.5. The full list was thinned out, with the lowest values kept by preference.

COMPOUND	GFP-
CNCC(=O)c1ccc(O)c(O)c1 [Adrenolone Hydrochloride]	1.05
C[C@@H]1[C@H](O)[C@@H](C)/C=C/C=C/CC/C=C/C=C/C=C/C=C/[C@H](O[C@H]2O[C@@H](C)[C@H](O)[C@@H](N)[C@H]2O)C[C@@H]2O[C@](O)(C[C@@H](O)[C@H](O)CC[C@@H](O)C[C@@H](O)C[C@@H](O)CC(=O)O[C@H]1C)C[C@H](O)[C@H]2C(=O)O	0.951
CC[C@@H]1[C@@H](C)O[C@@](O)([C@@H](C)[C@H](O)[C@H](C)[C@H]2OC(=O)/C=C/C=C/[C@H](C)[C@H]([C@@H](C)[C@@H](O)[C@H](C)[C@@]3(O)C[C@@H](O[C@H]4C[C@H](O)[C@H](O)[C@H](C)O4)[C@H](CC)[C@@H](C)O3)OC(=O)/C=C/C=C/[C@H]2C)C[C@H]1O[C@H]1C[C@H](O)[C@H](O)[C@H](C)O1	0.414

###

Recorded measurements of GFP-, one per entry
test system: mouse p16Ink4a+/- lung fibroblasts (INKBRITE, bleomycin-injured); assay: GFP- (p16Ink4a-) cell count relative to negative-control wells (fold of vehicle); higher = more p16Ink4a- cells surviving; settings: 1 µM; 3 days
In all, about 1,800 compounds were measured (“GFP- (p16Ink4a-) cell count relative to negative-control wells”: median about 0.99, lowest 2% from about 0.5 on). The sample as a whole holds a higher share of the lowest values than the screen did.
PROPERTY_LABEL: GFP-

                                   compound  property_label  observed_result
0  C/C(=C\c1csc(C)n1)[C@@H]1C[C@@H]2O[C@@H]2CCC[C@H](C)[C@H](O)[C@@H](C)C(=O)C(C)(C)[C@@H](O)CC(=O)O1            GFP-            0.423
1  CCOC(=O)c1cncn1C(C)c1ccccc1 (configuration not stated) [Etomidate]            GFP-             1.09
2  C/C(=C\c1csc(C)n1)[C@@H]1C[C@@H]2O[C@]2(C)CCC[C@H](C)[C@H](O)[C@@H](C)C(=O)C(C)(C)[C@@H](O)CC(=O)O1            GFP-             1.03
3                COc1ccc(C(=O)N2CCCC2=O)cc1            GFP-            0.968
4  C1=C2CCCN[C@H]2[C@@H]2C[C@H]1[C@H]1CCCCN1C2            GFP-             0.98
5  Cc1sc2c(c1C)C(c1ccc(Cl)cc1)=N[C@@H](CC(=O)Nc1ccc(O)cc1)c1nnc(C)n1-2            GFP-            0.844
6  CC(C)NCC(O)c1ccccc1Cl (configuration not stated)            GFP-             1.02

Values were extracted from the supplement of paper PMC11060735.
